# TARGET_OR_TEST_SYSTEM: T1, Abz-LAETGK(Dnp)-CONH2
# T1 chain: LAETGK
So I've got a bunch of proteins here, and I need their Avg kcat/KM values.
# output: bare number, no unit

Data point: eSrtA(2A-9) (protein) QAKPQIPKDKSKVAGYIEIPDADIKEPVYPGPATREQLNRGVCFHDENESLDDQNISIAGHTFIDRPNYQFTNLKAAKPGSMVYFKVGNETRIYKMTSIRKVHPNAVEVLDEQEGKDKQLTLVTCDDYNEETGVWESRKIFVATEVK ; Avg kcat/KM = 8420

Per the record, eSrtA(2A-3) (protein) QAKPQIPKDKSKVAGYIEIPDADIREPVYPGPATREQLNRGVSFAEENESLDDQNISIAGHTSIGRPNYQFTNLRAAKKGSMVYFEVGNETRKYKMTSIRNVRPTAVEILDEQKGKDRQLTLFTCDDYNEETGVWETRKIFVATEVK has Avg kcat/KM of 881

Item: eSrtA(2A-6) (protein) QAKPQIPKDKSKVAGYIEIPDADIKEPVYPGPATREQLNRGVSFHEENESLDDQNISIAGHTFIDRPNYQFTNLKAAKVGSMVYFKVGNETRKYKMTSIRNVRPTAVEVLDEQKGKDKQLTLVTCDDYNEETGVWETRKIFVATEVK | Avg kcat/KM: 3930
